FYI, the data here is from patent US11306096B2.

pIC50: −log10 of the molar value.
# collection of pIC50 values tested on USP7 (Homo sapiens (Human))

Sample records with pIC50:
INSERT INTO results (mol_smiles, measured_value) VALUES
  ('N#CN1Cc2[nH]nc(-c3ccc(Oc4ccccc4)cc3)c2C1', '> 5.00'),
  ('N#CN1Cc2[nH]nc(CNC(=O)c3cc(-c4ccccc4)n[nH]3)c2C1', '> 5.00'),
  ('COc1ccc(-c2n[nH]c3c2CN(C#N)C3)cn1', '> 5.00'),
  ('Cc1ccc(C(=O)NCc2nn(-c3ccccc3)c3c2CN(C#N)C3)cc1', '> 5.00'),
  ('N#CN1Cc2cnn(-c3ccc(C(=O)NCc4ccccn4)cc3)c2C1', '4.52 to 5.00');

Turning now to a further compound:
Field request: pIC50 | item: `COc1cc(Cl)ccc1-c1n[nH]c2c1CN(C#N)C2`
> 5.00

* * *

The listing below reports pIC50 for compounds tested on USP7 (Homo sapiens (Human), UniProt Q93009).
Sequence (Q93009 whole entry): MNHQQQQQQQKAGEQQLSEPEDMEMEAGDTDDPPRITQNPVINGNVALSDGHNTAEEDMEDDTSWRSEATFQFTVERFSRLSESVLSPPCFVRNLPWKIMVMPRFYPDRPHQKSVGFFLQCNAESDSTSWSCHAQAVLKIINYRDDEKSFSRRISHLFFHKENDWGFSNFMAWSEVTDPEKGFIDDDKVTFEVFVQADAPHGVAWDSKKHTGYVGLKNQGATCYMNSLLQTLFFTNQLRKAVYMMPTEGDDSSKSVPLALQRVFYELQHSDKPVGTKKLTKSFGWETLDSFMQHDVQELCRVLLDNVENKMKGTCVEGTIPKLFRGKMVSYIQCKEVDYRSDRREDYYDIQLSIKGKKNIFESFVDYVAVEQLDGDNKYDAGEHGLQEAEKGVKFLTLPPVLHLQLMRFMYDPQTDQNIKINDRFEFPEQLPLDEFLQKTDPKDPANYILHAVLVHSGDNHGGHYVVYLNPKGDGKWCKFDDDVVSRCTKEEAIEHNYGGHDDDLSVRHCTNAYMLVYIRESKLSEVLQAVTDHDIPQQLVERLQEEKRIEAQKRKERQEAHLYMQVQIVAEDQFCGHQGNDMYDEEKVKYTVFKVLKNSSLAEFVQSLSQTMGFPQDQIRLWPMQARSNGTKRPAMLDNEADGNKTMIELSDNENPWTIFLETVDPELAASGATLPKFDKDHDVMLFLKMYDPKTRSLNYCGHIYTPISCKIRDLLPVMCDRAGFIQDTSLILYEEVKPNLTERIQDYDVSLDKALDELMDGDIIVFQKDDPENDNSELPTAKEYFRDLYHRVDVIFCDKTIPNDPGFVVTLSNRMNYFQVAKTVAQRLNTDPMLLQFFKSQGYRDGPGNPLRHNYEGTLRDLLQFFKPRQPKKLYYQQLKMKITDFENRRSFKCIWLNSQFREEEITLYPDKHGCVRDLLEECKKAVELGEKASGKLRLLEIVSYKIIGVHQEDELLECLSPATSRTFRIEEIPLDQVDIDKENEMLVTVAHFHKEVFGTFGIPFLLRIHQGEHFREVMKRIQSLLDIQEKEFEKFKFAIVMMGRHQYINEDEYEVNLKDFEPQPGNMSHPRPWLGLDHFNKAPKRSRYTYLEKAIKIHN
pIC50: −log10 of the molar value.

For orientation, consider the following solved cases.
INSERT INTO measurements (mol_smiles, measured_value) VALUES
  ('N#CN1Cc2[nH]nc(-c3ccc(C(F)(F)F)cc3F)c2C1', '> 5.00'),
  ('N#CN1Cc2[nH]nc(-c3cccc(S(=O)(=O)NC4CC4)c3)c2C1', '> 5.00'),
  ('Cn1nc2c(c1Nc1cc3ccccc3cn1)CN(C#N)C2', '> 5.00'),
  ('COc1ccc(C(C)C)cc1-c1nn(Cc2ccccc2)c2c1CN(C#N)C2', '4.52 to 5.00'),
  ('N#CN1Cc2[nH]nc(-c3ccc(C(=O)NCc4ccccc4)cc3)c2C1', '> 5.00'),
  ('N#CN1Cc2c(Nc3ccccn3)nn(-c3ccc(C(N)=O)cc3)c2C1', '4.52 to 5.00'),
  ('N#CN1Cc2cnn(-c3ccccc3F)c2C1', '4.52 to 5.00'),
  ('N#Cc1cccc(-c2n[nH]c3c2CN(C#N)C3)c1', '> 5.00'),
  ('COc1ccc(C(C)C)cc1-c1nn(C)c2c1CN(C#N)C2', '> 5.00'),
  ('CNC(=O)c1ccc(-n2ncc3c2CN(C#N)C3)cc1', '4.52 to 5.00');

Short answer please: pIC50, USP7 (Homo sapiens (Human), UniProt Q93009), entry `CN1CCN(c2ccc(-c3n[nH]c4c3CN(C#N)C4)c(F)c2)CC1`
> 5.00

What pIC50 appears in the records for this compound with USP7 (Homo sapiens (Human), UniProt Q93009)? `COc1ccc(Cl)cc1-c1n[nH]c2c1CN(C#N)C2`
> 5.00

Give pIC50 (USP7 (Homo sapiens (Human), UniProt Q93009)) of the following compound: `N#CN1Cc2cnn(-c3cn(-c4ccccc4)cn3)c2C1`
4.52 to 5.00

* * *

What follows is a record of IC50 for USP7 (Homo sapiens (Human)).

Solved cases below.
INSERT INTO assay_data (compound, measurement_label, measured_value) VALUES
  ('CNC(=O)c1cc(-n2ncc3c2CN(C#N)C3)ccc1OC [Example 18]', 'IC50', '30 to 100 µM'),
  ('N#CN1Cc2cnn(-c3n[nH]c4ccccc34)c2C1 [Example 19]', 'IC50', '< 10 µM'),
  ('CN1CCC(n2cc(-c3n[nH]c4c3CN(C#N)C4)cn2)CC1 [Example 68]', 'IC50', '< 10 µM'),
  ('N#CN1Cc2cnn(-c3ccccc3)c2C1 [Example 2]', 'IC50', '10 to 30 µM'),
  ('Cc1ccc(F)c(-c2c3c(nn2C)CN(C#N)C3)c1 [Example 61]', 'IC50', '10 to 30 µM'),
  ('CCc1ccc(OC)c(-c2n[nH]c3c2CN(C#N)C3)c1 [Example 64]', 'IC50', '< 10 µM');

Provide the documented IC50 with USP7 (Homo sapiens (Human)) as the system for CN1CCN(c2ccc(-c3n[nH]c4c3CN(C#N)C4)cc2)CC1 [Example 66]
< 10 µM

Request: IC50, test system USP7 (Homo sapiens (Human)), entry N#CN1Cc2cnn(-c3ccc(F)cc3)c2C1 [Example 3]
< 10 µM
